Test system: NCI-H522
Test: NCI tumour cell line growth inhibition, 48 h
Active and inactive are the calls of the source. Cut-off read from the data, not from the text of the source: active = GI50 up to about 1.1 µM and inactive = higher. Where a SMILES comes first, the peptide text is derived from it. The star is where a group is joined. Cbz = O=C(OCc1ccccc1)*
Give GI50 for every item shown.

The recorded GI50 for `CCOc1ccc2nc3nc(O)nc(C)c3c(NCCCN(CC)CC)c2c1` is > 100 µM (inactive)

Summary for this molecule, O=S(=O)(c1cccc(C(F)(F)F)c1)N1c2ccccc2-n2cccc2C1c1cccnc1 (centres undefined) : GI50 is 15.4 µM (inactive)

Record C=C(c1ccccc1)C1ON(C)CCc2cc(OC)c(OC)cc21 (centres undefined) . Reported GI50: 56.4 µM (inactive)

Lab book: GI50 of `CCOC(=O)c1nc2cc(C(F)(F)F)ccc2nc1Nc1cc(OC)c(OC)c(OC)c1` noted as > 100 µM (inactive)

The value of GI50 measured for the molecule CC(CCC(=O)O)[C@H]1CCC2[C@H]3C(CC(=O)[C@@]21C)[C@@]1(C)CCC(O)C[C@H]1C[C@@H]3O (some centres undefined) turned out to be > 100 µM (inactive)

For this molecule ( CC1=NC(C)(COC(=O)C2(C)NC(C)(CO)CO2)COC1=O (centres undefined) ), measured GI50 is > 100 µM (inactive)

Reported GI50 of CCOC(=O)CCC(NC(=O)C(Cc1ccccc1)NC(=O)OCc1ccccc1)C(=O)OCC (stereo not drawn) (Cbz-Phe-Glu(OEt)-OEt; configuration not given here) : 15.7 µM (inactive)

The molecule identified as `O=C(CCc1ccc(O)cc1)NCCCNC(=O)CCc1ccc(O)cc1` registered its GI50 at > 100 µM (inactive)

Memo: CN(C)c1ccc(C(C#N)N2CCCN(C(C#N)c3ccc(N(C)C)cc3)C2c2ccc(N(C)C)cc2)cc1 (centres undefined) , reported GI50: > 100 µM (inactive)

----------
Field: GI50. Provide a value for each of the molecules that follow.
System: SNB-75
Experiment: NCI tumour cell line growth inhibition, 48 h
Activity calls are given as the source filed them. Cut-off read from the data, not from the text of the source: active = GI50 up to about 1.1 µM and inactive = higher. Non-standard residues stand in square brackets, D forms with d. Residues, ends and D or L forms follow the SMILES beside them. *: point of attachment. Bn2Val = CC(C)[C@@H](C(=O)*)N(Cc1ccccc1)Cc1ccccc1; NMeV = CN[C@H](C(=O)O)C(C)C; X32 = COc1ccc(CN*)c(OC)c1; dNMeA = CN[C@H](C)C(=O)O

So the reported GI50 for `O=c1oc2c(Cl)cc(Cl)cc2cc1-c1cn2c(n1)sc1ccccc12` , on SNB-75, turned out to be > 100 µM (inactive)

Here `CCN(CC)C(=O)c1c(N2CCOCC2)cc(N(CC)CC)oc1=O` was tested on SNB-75, and its GI50 came to > 100 µM (inactive)

Entry `O=C1C=CC(=O)C1(Br)Br` under SNB-75 had GI50 of 12 µM (inactive)

Tested system SNB-75; GI50 recorded for `CCn1cc(C(=O)O)c(=O)c2cc(F)c(N3CCNCC3)nc21` was > 100 µM (inactive)

// GI50 (SNB-75) for `COC(=O)c1ccc(Oc2nc3ccc(C(F)(F)F)cc3nc2-c2ccccc2)cc1` = > 100 µM (inactive)

Sample COc1ccc(CNC(=O)[C@@H]2CCCN2C(=O)[C@@H](C)N(C)C(=O)[C@H](C(C)C)N(C)C(=O)[C@@H](NC(=O)[C@H](C(C)C)N(Cc2ccccc2)Cc2ccccc2)C(C)C)c(OC)c1 (Bn2Val-V[NMeV][dNMeA]P-X32) , system: SNB-75. Its GI50 is 1.52 µM (inactive)

The observed GI50 for `COC1=CC(=O)C(Br)=CC1=O` when tested with SNB-75 stands at 15.2 µM (inactive)

So the reported GI50 for `Cc1ccc(C2=[N+]([O-])c3ccccc3C2=O)cc1` , on SNB-75, turned out to be 44.4 µM (inactive)

// assay SNB-75, entry `C[C@@H](c1ccccc1)N(CC#N)[C@H]1CCC[C@]1(O)/C=C/c1ccc2c(c1)OCO2` , GI50 value = > 25 µM (inactive)

Observed GI50, SNB-75, `O=C1Nc2cccc(Cl)c2/C1=C\c1c(-c2ccccc2)nc2n1CCS2` : 24 µM (inactive)

Value (GI50, SNB-75) for record COc1cc([C@@H]2c3cc4c(cc3[C@@H](OC3OC5COC(C)OC5C(OC(=O)CN5CCN(C)CC5)C3OC(=O)CN3CCN(C)CC3)C3COC(=O)[C@@H]32)OCO4)cc(OC)c1OC(=O)CN1CCN(C)CC1 (some centres undefined) = 28.5 µM (inactive)

The observed GI50 for `COc1cc2c(cc1Cc1c(F)cccc1Cl)nc(-c1c(F)cccc1Cl)n2Cc1c(F)cccc1Cl` when tested with SNB-75 stands at 24.7 µM (inactive)

The molecule `O=C(Nc1ccccc1)c1cc2c(cc1Cl)Sc1nccn1S2(=O)=O` , tested on SNB-75, showed GI50 of 17.7 µM (inactive)

// molecule CC(=O)N1N=C(c2ccc3ccccc3c2O)CC1c1cccs1 (centres undefined) , assay SNB-75, GI50 value: 25.5 µM (inactive)

Let me check: `OCCN(CCO)c1ccc2c(-c3ccccc3)cc(N(CCO)CCO)nc2n1` , system SNB-75, measured GI50 is > 100 µM (inactive)

// returns GI50 for CCOC(=O)c1cnc2oc(/C=N/N3CC(CN4CCOCC4)OC3=O)cc2c1O (centres undefined) with SNB-75; value = > 100 µM (inactive)

Bench note, SNB-75: entry O=NN1C(c2ccccc2)CNC(=O)CC1c1ccccc1 (centres undefined) , its GI50 = 20.8 µM (inactive)

Query `Clc1ccc(C[P+]2(c3ccccc3)CCCCC2)cc1.[O-][Cl+3]([O-])([O-])[O-]` on SNB-75; GI50 returned: 37.1 µM (inactive)

Per the reported SNB-75 data, `Cc1cc(NS(=O)(=O)c2ccc(NC(=O)c3cccc4c(Nc5ccc(S(=O)(=O)N=C(N)N)cc5)c5ccccc5nc34)cc2)no1` has GI50 of > 100 µM (inactive)

----------
Consider the following molecules; for each one, report its GI50.
Test system: UO-31
Test: NCI tumour cell line growth inhibition, 48 h
Activity calls are given as the source filed them. No stated cut-off is given here; in the data, active = GI50 up to about 1.1 µM and inactive = higher.

Form: molecule = `CC(=O)c1c(O)cc(O)c(-c2c(C)cc(O)c3c2C(=O)c2cccc(O)c2C3=O)c1O` ; GI50 = 14.5 µM (inactive)

Short answer for CCC12C[N+]3([O-])CCc4c([nH]c5ccccc45)C(C(=O)OC)(c4cc5c(cc4OC)N(C)C4C(O)(C(=O)OC)C(OC(C)=O)C6(CC)C=CCN7CCC54C76)CC(C3)C1O2 (centres undefined) : GI50 was 3.17 µM (inactive)

Item: `c1ccc2c(c1)-c1ccccc1C2NC1=NCCO1` | GI50: 24.1 µM (inactive)

Measured GI50, `CN(C)C(=S)Nc1nnc(NC23CC4CC(CC(C4)C2)C3)s1.[O-][Cl+3]([O-])([O-])O` : 12.4 µM (inactive)

Form: molecule = `O=S(=O)(O)c1cc(S(=O)(=O)O)c2cc(/N=N/c3c(O)ccc4ccccc34)ccc2c1` ; GI50 = > 100 µM (inactive)

Documented GI50 of `O=c1c(C(c2ccccn2)c2c(O)oc3cc(O)ccc3c2=O)c(O)oc2cc(O)ccc12` : > 100 µM (inactive)

Just so you know, measured GI50 for `CN(C)c1ccc(/N=N\c2cccc3ccoc23)cc1` came out at 6.46 µM (inactive)

Input `COC(=O)NN=C1C(C)(C)C(=NNC(=O)OC)C1(C)C` . Output GI50: > 100 µM (inactive)

The measured GI50 associated with `Cc1ccc(Nc2nc(=O)c3c([nH]c4ccccc43)s2)cc1` reads 2.9 µM (inactive)

----------
Test system: SK-OV-3
Test: NCI tumour cell line growth inhibition, 48 h
Activity calls are given as the source filed them. No stated cut-off is given here; in the data, active = GI50 up to about 1.1 µM and inactive = higher.
MEASUREMENT LABEL: GI50

`Cc1cc(NS(=O)(=O)c2ccc(NC(=O)c3cccc4c(Nc5ccc(S(=O)(=O)N=C(N)N)cc5)c5ccccc5nc34)cc2)no1` has a reported GI50 of > 100 µM (inactive)

# GI50 of `O=C(Nc1ccccc1)c1cc2c(cc1Cl)Sc1nccn1S2(=O)=O` = 76.4 µM (inactive)

Per the records, this compound ( O=C1C2=C(c3ccccc31)C(c1ccccc1)N1C(=O)CSC1=N2 (stereo not given) ) has GI50 equal to > 70.6 µM (inactive)

Looking up OCC(CCc1c[nH]c2ccccc12)c1c[nH]c2ccccc12 (stereo not given) , I found its GI50 recorded as 30.5 µM (inactive)

The value of GI50 measured for the compound `O=P(O)(O)CN1CCNCCN(CP(=O)(O)O)CCNCC1` turned out to be 8.87 µM (inactive)
